- Method summary: TOR pathway GLN3 branch reporter MEP2-GFP changes – S. cerevisiae, multiplex flow cytometry, MLPCN library, primary screen (AID 2016);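 note: median GFP fluorescence of the barcode-gated MEP2-GFP cells per well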
- Condition set: S. cerevisiae MEP2-GFP strain, 3 h, at 10 µM, 100% = DMSO control level
The whole screen tested about 330,000 compounds, of which about 1,700 (0.52%) were called active.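 Rule for the calls: active = GFP response versus DMSO above a set limit, roughly screen mean plus 3 SD (cut at about 180% in these data); inconclusive = fewer than 70 cells counted for a yeast strain; inactive = the rest.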 Shown is part of a subset that was picked to be rich in actives.
Labels: active, inactive

{"Molecule": "COc1ccccc1NS(=O)(=O)c1ccc(C)c(C(=O)NCC(c2ccco2)N(C)C)c1 (stereo not drawn)", "Category": "inactive"}
{"Molecule": "Cc1cc(=O)oc2c3c(cc(OCC(=O)NCCC(=O)N[C@@H](C)C(=O)O)c12)OC(C)(C)CC3", "Category": "inactive"}
{"Molecule": "CC1CCN(S(=O)(=O)c2nnc(NC(=O)COc3ccccc3F)s2)CC1", "Category": "inactive"}
{"Molecule": "O=C(NNS(=O)(=O)Cc1ccccc1)c1ccc([N+](=O)[O-])cc1", "Category": "active"}
{"Molecule": "COc1ccc(CN2CCn3ncc(C(=O)Nc4ccc(Cl)cc4Cl)c3C2=O)cc1", "Category": "inactive"}
{"Molecule": "COCC1CCN(C(=O)c2ccc3oc(Cc4ccccc4)nc3c2)C1 (stereo not drawn)", "Category": "inactive"}
{"Molecule": "CCn1ncc(Br)c1C(=O)Nc1cc(C)ccc1F", "Category": "active"}
{"Molecule": "CCOc1ccccc1NC(=O)C12CC3CC(C1)CC(c1ccc(C)cc1)(C3)C2", "Category": "inactive"}
{"Molecule": "O=C(Cc1ccccc1)NNS(=O)(=O)c1ccc([N+](=O)[O-])cc1", "Category": "inactive"}
{"Molecule": "O=C(Nc1ccc(N2CCOCC2)c(Cl)c1)c1ccc(S(=O)(=O)N2CCOCC2)cc1", "Category": "inactive"}
{"Molecule": "CCN1/C(=C/c2ccc3ccc(C)cc3[n+]2CC)Sc2ccccc21", "Category": "active"}
{"Molecule": "Cc1cc(=O)oc2cc(NC(=O)C3CC(=O)N(Cc4ccccc4)C3)ccc12 (stereo not drawn)", "Category": "active"}
{"Molecule": "Cc1cccc(NC(=O)N2CCCCCC2)c1C", "Category": "inactive"}
{"Molecule": "O=C(Nc1ccc(F)c([N+](=O)[O-])c1)C1CC(=O)N(Cc2ccccc2)C1 (stereo not drawn)", "Category": "inactive"}
{"Molecule": "CCN(C[C@H]1N[C@@](Cc2ccccc2)(C(=O)OC)[C@H]2C(=O)N(Cc3ccccc3)C(=O)[C@@H]12)C(=O)c1ccc(C)cc1", "Category": "inactive"}
{"Molecule": "Cc1ccc(S(=O)(=O)Oc2ccc(/C=N/NC(=O)c3c(Cl)cnn3C)cc2)cc1", "Category": "inactive"}
{"Molecule": "COc1ccc(-n2nnnc2SCc2nc(N)nc(N3CCOCC3)n2)cc1", "Category": "active"}
{"Molecule": "Cc1ccc2nc(-c3ccc(SCC(=O)Nc4cc(C)on4)nc3)[nH]c2c1", "Category": "inactive"}
{"Molecule": "O=C(NCCc1ccccc1)C(=O)NCC1OCCN1S(=O)(=O)c1cccs1 (stereo not drawn)", "Category": "inactive"}
{"Molecule": "Cc1ccc(F)c(NC(=O)CCc2ccccc2)c1", "Category": "inactive"}
{"Molecule": "Cc1ccc(F)c(NC(=O)CCOc2ccccc2C)c1", "Category": "inactive"}
{"Molecule": "O=C(CSc1nnnn1-c1ccc(O)cc1)c1ccc(F)cc1", "Category": "inactive"}
{"Molecule": "Cc1cc(=O)oc2cc(NC(=O)C(C)Oc3ccccc3)ccc12 (stereo not drawn)", "Category": "inactive"}
{"Molecule": "CCOc1ccc(NS(=O)(=O)c2ccc(C(=O)NCC(c3ccccc3OC)N3CCCC3)cc2)cc1 (stereo not drawn)", "Category": "inactive"}
{"Molecule": "CCCCCCCCCCCCCCCC(=O)OC/C=C(C)/C=C/C=C(C)/C=C/C1=C(C)CCCC1(C)C", "Category": "inactive"}
{"Molecule": "Cc1nn(C)c(C)c1C(C)NC(=O)c1ccc(OC2CCN(Cc3ccccn3)CC2)cc1 (stereo not drawn)", "Category": "inactive"}
{"Molecule": "N#CCCN1CCN(S(=O)(=O)c2ccc(S(=O)(=O)NC3CCCCC3)cc2)CC1", "Category": "inactive"}
{"Molecule": "Cc1cccc(NC(=O)c2ccc3nsnc3c2)c1C", "Category": "inactive"}
{"Molecule": "CCC(CO)Oc1cc(NC(=O)c2ccc(Cl)cc2)c2ncn(C(C)C)c2c1 (stereo not drawn)", "Category": "inactive"}
{"Molecule": "COc1ccccc1CN1CCN(Cc2cc(OC)c(OC)cc2OC)CC1", "Category": "inactive"}
{"Molecule": "O=C(CNC(=O)c1ccccc1)Oc1ccc([N+](=O)[O-])cc1", "Category": "inactive"}
{"Molecule": "O=C(CN1C(=O)c2cccnc2Oc2ccc(Cl)cc21)Nc1ccc(F)cc1", "Category": "inactive"}
{"Molecule": "CCN1/C(=C\\c2ccc3ccccc3[n+]2CC)Sc2cc(C)ccc21", "Category": "active"}
{"Molecule": "Cc1cccc(-c2nc(CS(=O)CC(=O)NC(C)CCc3ccccc3)c(C)o2)c1 (stereo not drawn)", "Category": "inactive"}
{"Molecule": "O=C(CC1CCCCC1)NCc1ccc(F)cc1", "Category": "inactive"}
{"Molecule": "O=c1c2c(nc3nc[nH]n13)CCC2", "Category": "active"}
{"Molecule": "COC(=O)c1ccc(-c2noc(CN(Cc3ccccn3)CC3CCCO3)n2)cc1 (stereo not drawn)", "Category": "inactive"}
{"Molecule": "COC(=O)/C(=C\\Nc1ccccc1)NC(=O)c1ccc(Cl)cc1Cl", "Category": "inactive"}
{"Molecule": "CC(C)(C)C(=O)/C(C#N)=C/c1ccc(O)cc1", "Category": "inactive"}
{"Molecule": "C=CCNC(=O)C12CC3CC(C1)CC(C(=O)NCC=C)(C3)C2", "Category": "inactive"}
{"Molecule": "COc1ccc(CSc2nnnn2-c2ccc(C(=O)O)cc2)cc1", "Category": "inactive"}
{"Molecule": "Cc1ccc(C(=O)N2CC(=O)Nc3ccccc32)o1", "Category": "inactive"}
{"Molecule": "O=C(COC(=O)/C=C/c1cccc(Cl)c1)NCCc1ccccc1", "Category": "inactive"}

Entry source: PubChem BioAssay AID2016
